B1: KLHDC10 (parent)
chain: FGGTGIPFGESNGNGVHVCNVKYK

Variants of: B1
Test: protein stability index of a GFP-peptide fusion (GPS, HEK-293T) (PSI 1-6); higher = more stable;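 note: lentivirally expressed fusions sorted by FACS into six bins by GFP to DsRed ratio, PSI derived from sequencing read proportions per bin multiplied by bin number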
Settings: c terminus: a fixed tail appended

VARIANT_KEY: G5M
protein stability index: 2.47

VARIANT_KEY: C19M
protein stability index: 2.15

VARIANT_KEY: Y23H
protein stability index: 2.43

VARIANT_KEY: G15C
protein stability index: 1.58

VARIANT_KEY: H17C
protein stability index: 1.75

VARIANT_KEY: F1P
protein stability index: 3.9

VARIANT_KEY: G9C
protein stability index: 1.41

VARIANT_KEY: T4G
protein stability index: 2.03

VARIANT_KEY: N12C
protein stability index: 1.63

VARIANT_KEY: I6N
protein stability index: 2.07

VARIANT_KEY: V21S
protein stability index: 2.38

VARIANT_KEY: N12L
protein stability index: 1.87

VARIANT_KEY: S11W
protein stability index: 2.4

VARIANT_KEY: K22R
protein stability index: 2.34

VARIANT_KEY: N12K
protein stability index: 1.82

These measurements were taken from the supplement of paper PMC10567573.
